Molecular target: Lysosomal acid glucosylceramidase (Homo sapiens)
Test: Glucocerebrosidase-p2 (AID 348); also: potency is read from the fitted curve at half-maximal effect
Conditions: purified GBA, blue fluorogenic substrate, 40 min
Activity calls are given as the source filed them. Rule as the data show it: active = potency below about 10 µM; inactive = the rest.
# key: entry, value: Potency

The cases that follow already have their Potency on record.
{"smiles str": "COc1ccc(-n2c(=O)c(C)nc3cnc(N4CCNCC4)nc32)cc1", "tested target": "Lysosomal acid glucosylceramidase (Homo sapiens)", "Potency": "> 11.4 µM (inactive)"}
{"smiles str": "COC(=O)N1CCC2(CCCN(C(=O)Nc3cccc(F)c3)C2)CC1", "tested target": "Lysosomal acid glucosylceramidase (Homo sapiens)", "Potency": "> 11.4 µM (inactive)"}
{"smiles str": "CN(C)C(=O)c1ccc(-c2cncnc2NC2CCNCC2)cc1", "tested target": "Lysosomal acid glucosylceramidase (Homo sapiens)", "Potency": "> 11.4 µM (inactive)"}
{"smiles str": "CN1CCN(c2nc(-c3ccc4c(c3)OCO4)nc3ccccc23)CC1", "tested target": "Lysosomal acid glucosylceramidase (Homo sapiens)", "Potency": "> 11.4 µM (inactive)"}
{"smiles str": "CN1CCN(c2ncnc3ccc(-c4ccc5c(c4)OCO5)cc23)CC1", "tested target": "Lysosomal acid glucosylceramidase (Homo sapiens)", "Potency": "> 11.4 µM (inactive)"}

Next up:
Prompt: May I ask what Potency has been recorded for `O=c1cnc2cnc(Oc3cccc(Cl)c3)nc2n1Cc1ccc(F)cc1` ?
Completion: > 11.4 µM (inactive)

###

Target: Cytochrome P450 2D6 (Homo sapiens)
Assay: qHTS Assay for Inhibitors and Substrates of Cytochrome P450 2D6 (AID 891); also: nearly all actives have a fitted effect of over 60% in size
Conditions: recombinant CYP2D6, luciferin-ME EGE luminescence; series mostly up to 57.1 µM
Experimental: NIH Molecular Libraries Screening Centers Network [MLSCN] NIH Chemical Genomics Center [NCGC] The P450 gene superfamily is involved in the metabolism and clearance of xenobiotics. […] The luciferin is then measured by luminescence after the addition of a luciferase detection reagent. […] Inhibitors and some substrates limit the production of luciferin, and decrease measured luminescence. […]
Results filed as inconclusive are left out. Calls of active or inactive are those of the source. Calls follow the shape of the dose curve; as a rule, active = well fitted inhibition curve with a large enough effect; inconclusive = small, poorly fitted or top-dose-only effect; inactive = no such curve, though single readings can be large or run the other way.
Assign a class; possible classes are yes (active), no (inactive)

Check out these entries, answers already filled in.
{"smiles str": "CN(Cc1ccco1)c1ncnc2ccc(-c3cccnc3)cc12", "qualitative label": "yes"}
{"smiles str": "O=C(c1ccncc1)N1CCC2(CC1)CN(C(c1ccccc1)c1ccccc1)C2", "qualitative label": "yes"}

Prompt: Status in this test for `CNc1ccnc(-c2ccccc2CN(C)C)n1` ?
Completion: yes

Prompt: Status in this test for `COC(=O)N1CCC[C@@]2(CCN(C(c3ccccc3)c3ccccc3)C2)C1` ?
Completion: yes

Prompt: Status in this test for `CC(=O)NCCNc1nc(-c2ccccc2C(F)(F)F)nc2ccccc12` ?
Completion: yes

Prompt: Status in this test for `COC(=O)N1CCC2(CCCN(Cc3ccccc3OC)C2)CC1` ?
Completion: yes

Prompt: Status in this test for `COc1ccc(-n2c(=O)c(-c3cccs3)nc3cnc(N(C)C)nc32)cc1` ?
Completion: no

Prompt: Status in this test for `COc1ccccc1CNc1ccnc(-c2ccc3c(c2)OCO3)n1` ?
Completion: yes

Prompt: Status in this test for `CS(=O)(=O)N1CCC2(CCN(C(c3ccccc3)c3ccccc3)CC2)CC1` ?
Completion: yes

Prompt: Status in this test for `CC(=O)N1CCC2(CCCN(C(c3ccccc3)c3ccccc3)C2)CC1` ?
Completion: yes

Prompt: Status in this test for `O=C(c1ccncc1)N1CCC2(CC1)CCN(c1cccc(-c3ccccc3)c1)CC2` ?
Completion: yes
